Source of measurements: patent US9029389B2

For each of the molecules below, state its melting point.
Give bare numbers, in °C.

{"testSmiles": "CCc1nc2ccc(Cl)cn2c1C(=O)NCc1ccc(N2CCC(C(N)=O)CC2)cc1", "readoutUnit": "°C", "melting point": 257.5}

Query: // lookup melting point for "CCc1nc2cc(Cl)ccn2c1C(=O)NCc1ccc(N2CCC(Cc3ccccc3)CC2)cc1"
Reply: 63.8

---

Target: Human 5-lipoxygenase (Homo sapiens, UniProt P09917)
Construct: purchased Cayman 60402; host or cells: insect cells
Sequence (P09917 1-674): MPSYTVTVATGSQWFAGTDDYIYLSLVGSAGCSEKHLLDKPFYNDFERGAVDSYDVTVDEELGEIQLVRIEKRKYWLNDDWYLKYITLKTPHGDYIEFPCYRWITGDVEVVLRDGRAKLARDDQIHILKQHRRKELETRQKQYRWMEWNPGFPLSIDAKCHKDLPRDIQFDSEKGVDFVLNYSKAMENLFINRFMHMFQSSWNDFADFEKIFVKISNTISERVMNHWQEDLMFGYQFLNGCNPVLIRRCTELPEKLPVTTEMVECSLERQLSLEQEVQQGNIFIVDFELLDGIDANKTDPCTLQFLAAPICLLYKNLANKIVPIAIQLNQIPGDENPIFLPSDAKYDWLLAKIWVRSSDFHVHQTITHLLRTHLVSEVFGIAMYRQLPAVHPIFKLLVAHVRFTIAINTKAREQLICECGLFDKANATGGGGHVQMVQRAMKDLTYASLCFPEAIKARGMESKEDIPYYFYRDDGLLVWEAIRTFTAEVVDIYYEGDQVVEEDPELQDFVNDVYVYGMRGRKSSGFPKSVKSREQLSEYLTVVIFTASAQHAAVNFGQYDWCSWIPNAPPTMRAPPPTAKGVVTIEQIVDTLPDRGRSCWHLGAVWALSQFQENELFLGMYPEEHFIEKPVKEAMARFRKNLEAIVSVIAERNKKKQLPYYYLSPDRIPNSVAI
Experiment: Activity of compounds against 5-LO enzyme (LTB4 measurement and/or fluorescence method)
Format: biochemical
Conditions: 5-LO, single concentration of 10 uM in duplicate
Protocol: The activity of compounds against 5-LO were determined by measuring LTB4 (leukotriene B4) levels and/or by a fluorescence method. Both approaches are outlined in more detail below; […] Relative quantification of LTB4 and LTB4-d4 (Internal Standard) was done using multi reaction monitoring (MRM) of the transitions of m/z 335→195 for LTB4, 339→197 for LTB4-d4 in electrospray ionization (ESI) negative mode. […]
For each of the molecules below, state its inhibition at 10 µM.

Worked examples follow.
{"molecule": "Cc1nc2ccccn2c1C(=O)NCCOCc1ccccc1", "recordedMeasurement": "< 40%"}
{"molecule": "CCc1nc2cc(Cl)ccn2c1C(=O)NCc1ccc(N2CC3CCCCC3C2)cc1 (stereo not drawn)", "recordedMeasurement": "40 to 69%"}
{"molecule": "CCc1nc2ccc(Cl)cn2c1C(=O)NCc1ccc(-c2ccccc2C)cc1", "recordedMeasurement": "40 to 69%"}
{"molecule": "CCc1nc2cc(Cl)ccn2c1C(=O)OCc1ccc(Oc2ccc(F)cc2)cc1", "recordedMeasurement": "< 40%"}
{"molecule": "CCc1nc2cc(C)ccn2c1C(=O)NCc1ccc2ccccc2c1", "recordedMeasurement": "40 to 69%"}
{"molecule": "CCc1nc2ccc(Cl)cn2c1C(=O)NCc1ccc(N2CCN(c3ccc(F)cc3)CC2)cc1", "recordedMeasurement": "40 to 69%"}

Batch request: inhibition at 10 µM for each of the following molecules.
1. CCc1nc2cnccn2c1C(=O)NCc1ccc(OC(F)(F)F)cc1
2. Cc1nc2ccccn2c1C(=O)NCC1CCCCC1
3. CCc1nc2cc(Cl)ccn2c1C(=O)NCc1ccc(N2CCN(c3ccc(F)cc3)CC2)cc1

Reply:
< 40%
< 40%
> 69%
